subjectOfTest: HIV-1 protease (Human immunodeficiency virus type 1 group M subtype B)
assayDetails: biochemical
conditionNotes: Table I; Dose 10.000 μM; read-out: Protease % Inhib
Counter-ions that a name gives are not always drawn.
measurementLabel: inhibition at 10 µM (%)
Value expressed in %; do not type the unit.

molecule	inhibition at 10 µM (%)
Cn1ccnc1S(=O)(=O)Cc1cccc(C(c2c(O)c3c(oc2=O)CCCCCC3)C2CC2)c1 (stereo not shown)	95.8
CC[C@H](Cc1ccccc1)c1cc(O)c(C(c2cccc(NS(=O)(=O)c3ccccn3)c2)C2CC2)c(=O)o1 (single isomer, unassigned)	97.8
CCCC1(CCC)CC(O)=C(C(CC)c2cccc(NS(=O)(=O)c3cn(C)cn3)c2)C(=O)O1 (single isomer, unassigned) [Example 53]	90.2
CCCC1CCCCCc2c1oc(=O)c(C(c1cccc(NS(=O)(=O)c3ccccc3)c1)C1CC1)c2O (stereo not shown)	99.7
CCCC1(CCC)CC(O)=C(C(CC)c2cccc(NS(=O)(=O)c3cn(C)cn3)c2)C(=O)O1 (stereo not shown) [Example 44]	102

Note to self: inhibition at 10 µM recorded for O=c1oc(C(CC2CC2)CC2CC2)cc(O)c1C(c1cccc(NS(=O)(=O)c2cccc3cccnc23)c1)C1CC1 (stereo not shown) was 111

inhibition at 10 µM for CCC(CCNC(=O)CCCCCCC(=O)N(C)CCS(=O)(=O)O)c1cc(O)c(C(c2cccc(NS(=O)(=O)c3cn(C)cn3)c2)C2CC2)c(=O)o1 (stereo not shown) [Example 110, monosodium salt] is 99.2
